This collection of values is drawn from paper PMC11369432.

# System: OATPs
# ASSAY_SUMMARY: Hepatic uptake of Gastrodin in rats after the OATPs inhibitor rifampicin (RIF group)
# Format: in vivo, Sprague-Dawley (SD) rats
# MEASUREMENT_PARAMETERS: male, Sprague-Dawley, rat, liver / blood, intravenous, RIF group, n = 6; *p < 0.05 vs Control
ATTRIBUTE_MEASURED: Kp at 300 min
Returns: the value as a bare number; no unit string appended.

State the recorded Kp at 300 min for this entry: OCc1ccc(O[C@@H]2O[C@H](CO)[C@@H](O)[C@H](O)[C@H]2O)cc1
0.035

* * *

# ASSAY_SUMMARY: Gastrodin plasma and liver concentrations and Kp in rats, control group (no inhibitor)
# Format: in vivo, Sprague-Dawley (SD) rats
# MEASUREMENT_PARAMETERS: male, Sprague-Dawley, rat, liver / blood, intravenous, 569 mg kg^−1, Control group, n = 6
ATTRIBUTE_MEASURED: Kp at 300 min

State the recorded Kp at 300 min for this entry: OCc1ccc(O[C@@H]2O[C@H](CO)[C@@H](O)[C@H](O)[C@H]2O)cc1 [GAS]
0.14

* * *

# Test system: OATPs
# ASSAY_SUMMARY: Hepatic uptake of Gastrodin in rats after the OATPs inhibitor rifampicin (RIF group)
# Format: in vivo, Sprague-Dawley (SD) rats
# MEASUREMENT_PARAMETERS: male, Sprague-Dawley, rat, plasma, intravenous, RIF group, single rats; rifampicin i.g. 1 h before Gastrodin 569 mg kg^−1; 300 min; read-out: Plasma concentration of GAS, 300min
ATTRIBUTE_MEASURED: concentration at 300 min
Form entry: enter the amount, then its unit.

State the recorded concentration at 300 min for this entry: OCc1ccc(O[C@@H]2O[C@H](CO)[C@@H](O)[C@H](O)[C@H]2O)cc1 [GAS]
444 µg/mL

* * *

# Test system: OCTs
# ASSAY_SUMMARY: Hepatic uptake of Gastrodin in rats after the OCTs inhibitor adrenalone (ADR group)
# Type: in vivo, Sprague-Dawley (SD) rats
# MEASUREMENT_PARAMETERS: male, Sprague-Dawley, rat, plasma, iv, ADR group, single rats; adrenalone i.v. 0.5 h before Gastrodin 569 mg kg^−1; 180 min; read-out: Plasma concentration of GAS, 180min
# From the text: The transporters involved in liver transport mainly include organic anion transport peptides (Oatps) and organic cation transporters (Octs), and these two transporters are most expressed in the liver. Therefore, this study chose Oatps and Octs as the research objects. Transport proteins affect drug efficacy and toxicity, the liver is the main organ for the metabolism of substances. […]
ATTRIBUTE_MEASURED: concentration at 180 min
Form entry: enter the amount, then its unit.

State the recorded concentration at 180 min for this entry: OCc1ccc(O[C@@H]2O[C@H](CO)[C@@H](O)[C@H](O)[C@H]2O)cc1
445 µg/mL

* * *

# Test system: OCTs
# ASSAY_SUMMARY: Hepatic uptake of Gastrodin in rats after the OCTs inhibitor adrenalone (ADR group)
# Type: in vivo, Sprague-Dawley (SD) rats
# MEASUREMENT_PARAMETERS: male, Sprague-Dawley, rat, plasma, iv, ADR group, single rats; adrenalone i.v. 0.5 h before Gastrodin 569 mg kg^−1; 300 min; read-out: Plasma concentration of GAS, 300min
ATTRIBUTE_MEASURED: concentration at 300 min (µg/mL)
Numbers only; they are read as µg/mL.

Find concentration at 300 min (OCTs) for the entry OCc1ccc(O[C@@H]2O[C@H](CO)[C@@H](O)[C@H](O)[C@H]2O)cc1 [GAS]
394
